# tested target: MC1-R (B-16 mouse melanoma cells) (Mus musculus, UniProt Q01727)
# Construct: B-16 mouse melanoma cells (containing MC1-R); endogenous in cells
# Sequence (Q01727 whole entry): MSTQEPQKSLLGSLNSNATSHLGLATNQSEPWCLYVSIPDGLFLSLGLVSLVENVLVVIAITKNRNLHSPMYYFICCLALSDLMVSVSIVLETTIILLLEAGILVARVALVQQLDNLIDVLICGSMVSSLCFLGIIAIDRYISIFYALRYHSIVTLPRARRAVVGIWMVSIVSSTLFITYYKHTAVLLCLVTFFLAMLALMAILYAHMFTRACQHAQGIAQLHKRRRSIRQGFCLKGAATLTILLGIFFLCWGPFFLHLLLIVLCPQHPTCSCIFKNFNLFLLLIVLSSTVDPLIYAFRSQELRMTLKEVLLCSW
# method notes: cAMP functional assay for agonist/antagonist status, MC1-R
# condition label: cAMP accumulation
Where a SMILES comes first, the peptide text is derived from it. Bridges are numbered along the chain shown (N, C = ends). [ ]: non-standard residue; d: D form. 1Nal = N[C@@H](Cc1cccc2ccccc12)C(=O)O; Nle = CCCC[C@H](N)C(=O)O
observable: pEC50
pEC50 field: float, defined as -log10 of concentration (mol/L).

As a guide, the following entries are already answered.
| compound | tested target | pEC50 |
| --- | --- | --- |
| CC(=O)N[C@H]1CC(=O)NCCCC[C@@H](C(=O)N(C)C)NC(=O)[C@H](Cc2cccc3ccccc23)NC(=O)[C@H](CCCNC(=N)N)NC(=O)[C@@H](Cc2ccccc2)NC(=O)[C@H](Cc2c[nH]cn2)NC1=O [Example 17] (Ac-DH[dF]R[1Nal]K-NMe2; lactam 1-6 (inferred)) | MC1-R (B-16 mouse melanoma cells) (Mus musculus, UniProt Q01727) | 5.63 |
| CCCC[C@H](NC(C)=O)C(=O)N[C@H]1CC(=O)NCCCC[C@@H](C(=O)NCC)NC(=O)[C@H](Cc2cccc3ccccc23)NC(=O)[C@H](CCCNC(=N)N)NC(=O)[C@@H](Cc2ccccc2)NC(=O)[C@H](Cc2c[nH]cn2)NC1=O | MC1-R (B-16 mouse melanoma cells) (Mus musculus, UniProt Q01727) | 8.10 |
| CC(=O)N[C@H]1CC(=O)NCCCC[C@@H](C(=O)N(C)C)NC(=O)[C@H](Cc2c[nH]c3ccccc23)NC(=O)[C@H](CCCNC(=N)N)NC(=O)[C@@H](Cc2ccccc2)NC(=O)[C@H](Cc2c[nH]cn2)NC1=O | MC1-R (B-16 mouse melanoma cells) (Mus musculus, UniProt Q01727) | 6.82 |
| CCNC(=O)[C@@H]1CCCCNC(=O)C[C@H](NC(C)=O)C(=O)N[C@@H](Cc2c[nH]cn2)C(=O)N[C@H](Cc2ccccc2)C(=O)N[C@@H](CCCNC(=N)N)C(=O)N[C@@H](Cc2c[nH]c3ccccc23)C(=O)N1 | MC1-R (B-16 mouse melanoma cells) (Mus musculus, UniProt Q01727) | 7.19 |
| CCCC[C@H](NC(C)=O)C(=O)N[C@H]1CC(=O)NCCCC[C@@H](C(=O)NCC)NC(=O)[C@H](Cc2cccc3ccccc23)NC(=O)[C@H](CCCNC(=N)N)NC(=O)[C@@H](Cc2ccccc2)NC(=O)[C@H](Cc2c[nH]c3ccccc23)NC1=O [Example 18] (Ac-[Nle]DW[dF]R[1Nal]K-NHEt; lactam 2-7 (inferred)) | MC1-R (B-16 mouse melanoma cells) (Mus musculus, UniProt Q01727) | 6.40 |

Exam item: Reported pEC50 for CCNC(=O)[C@@H]1CCCCNC(=O)C[C@H](NC(C)=O)C(=O)N[C@@H](Cc2c[nH]cn2)C(=O)N[C@H](Cc2ccccc2)C(=O)N[C@@H](CCCNC(=N)N)C(=O)N[C@@H](Cc2cccc3ccccc23)C(=O)N1 [Example 16] (Ac-DH[dF]R[1Nal]K-NHEt; lactam 1-6 (inferred)) : what is it?
Marked response: 5.19

Exam item: Reported pEC50 for CCCC[C@H](NC(C)=O)C(=O)N[C@H]1CC(=O)NCCCC[C@@H](C(=O)N(C)C)NC(=O)[C@H](Cc2cccc3ccccc23)NC(=O)[C@H](CCCNC(=N)N)NC(=O)[C@@H](Cc2ccccc2)NC(=O)[C@H](Cc2c[nH]c3ccccc23)NC1=O [Example 10] (Ac-[Nle]DW[dF]R[1Nal]K-NMe2; lactam 2-7 (inferred)) : what is it?
Marked response: 5.64

Exam item: Reported pEC50 for "CCCC[C@H](NC(C)=O)C(=O)N[C@H]1CC(=O)NCCCC[C@@H](C(=O)N(C)C)NC(=O)[C@H](Cc2cccc3ccccc23)NC(=O)[C@H](CCCNC(=N)N)NC(=O)[C@@H](Cc2ccccc2)NC(=O)[C@H](Cc2c[nH]cn2)NC1=O" : what is it?
Marked response: 7.82
